Read-out: urokinase plasminogen activator (uPA), PLAU (gene 5328)
measurement-description: BSK_KF3CT_uPA: BioMAP Diversity Plus: KF3CT Assay for urokinase plasminogen activator (uPA) Biomarker Activity (AID 2283075)
measurement-conditions: primary human keratinocytes with fibroblasts; actives raise or lower the signal
Calls of active or inactive are those of the source. Rule for the calls: active = hit-call score of the fitted dose curve at least 0.9, where 1 is the maximum; inactive = score below 0.9.
Just give me one of these, please: YES for active, NO for inactive

For orientation, consider the following solved cases.
- CC(C)(c1ccccc1)c1ccc(O)c(C(C)(C)c2ccccc2)c1: YES
- CC(C)CCCCCCOC(=O)c1ccccc1C(=O)OCCCCCCC(C)C: NO
- O=C(Nc1ccc2[nH]ccc2c1)c1cc2cc(F)ccc2n1Cc1cccc(F)c1: YES
- CC1(C)Cc2cccc(O)c2O1: NO
- CCOP(=S)(OCC)SCCS(=O)(=O)CC: NO

Ask: Each compound tested received a call. Report the one for Cc1ccccc1N .
Result: NO

Ask: Each compound tested received a call. Report the one for COC(=O)c1sccc1S(=O)(=O)NC(=O)Nc1nc(C)nc(OC)n1 .
Result: NO

Ask: Each compound tested received a call. Report the one for Oc1c(I)cc(I)cc1I .
Result: YES

Ask: Each compound tested received a call. Report the one for ClC1(Cl)C2(Cl)C3(Cl)C4(Cl)C(Cl)(Cl)C5(Cl)C3(Cl)C1(Cl)C5(Cl)C24Cl (stereo not drawn) .
Result: NO

Ask: Each compound tested received a call. Report the one for CC(C)(C)CC(C)(C)c1ccc(O)cc1 .
Result: YES

---

Read-out: Interferon-gamma inducible Protein 10 (IP10), CXCL10 (gene 3627)
measurement-description: BSK_hDFCGF_IP10: BioMAP Diversity Plus: hDFCGF Assay for Interferon-gamma inducible Protein 10 (IP10) Biomarker Activity (AID 2283053)
measurement-conditions: primary human foreskin fibroblasts; actives raise or lower the signal
Activity calls are given as the source filed them. How the source made its calls: active means hit-call score of the fitted dose curve at least 0.9, where 1 is the maximum; inactive means score below 0.9.
Just give me one of these, please: TRUE (active), FALSE (inactive)

For orientation, consider the following solved cases.
- COP(=S)(OC)Oc1ccc(Sc2ccc(OP(=S)(OC)OC)cc2)cc1: FALSE
- O=C(OC1CCCCC1)c1ccccc1C(=O)OC1CCCCC1: TRUE

Ask: Each compound tested received a call. Report the one for NC(=S)Nc1ccccc1 .
Result: FALSE

---

Read-out: Vascular endothelial growth factor receptor 2 (Homo sapiens) (UniProt P35968)
measurement-description: BSK_4H_VEGFRII: BioMAP Diversity Plus: 4H Assay for Vascular endothelial growth factor receptor 2 (VEGFR2) Biomarker Activity (AID 2283031)
measurement-conditions: primary human endothelial cells (HUVEC); actives raise or lower the signal
The source made the active and inactive calls. How the source made its calls: active means hit-call score of the fitted dose curve at least 0.9, where 1 is the maximum; inactive means score below 0.9.
Just give me one of these, please: active, inactive

For orientation, consider the following solved cases.
- CCOP(=S)(OCC)Oc1ccc(S(C)=O)cc1 (stereo not drawn): inactive
- COP(=S)(OC)Oc1c(Cl)cc(C)cc1Cl: inactive
- Cc1ccccc1N: inactive

Ask: Each compound tested received a call. Report the one for Cn1sc(Cl)cc1=O .
Result: inactive

Ask: Each compound tested received a call. Report the one for CC1(C)Cc2cccc(O)c2O1 .
Result: inactive

---

subject-of-test: Estrogen receptor (Homo sapiens)
measurement-description: CCTE_Deisenroth_AIME_384WELL_LUC_Inactive: CCTE's 384-well Estrogen Receptor Transactivation Assay without AIME metabolic competence (ERTA luciferase; metabolism negative), Deisenroth Lab (AID 2284038);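 note: VM7Luc4E2 breast cells given medium preincubated 2 h with S9-free microspheres; hits raise estrogen receptor luciferase signal so potencies reflect agonists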
Results filed as inconclusive are left out. Calls of active or inactive are those of the source. Rule for the calls: active = hit-call score of the fitted dose curve at least 0.9, where 1 is the maximum; inconclusive = response in the unintended direction; inactive = score below 0.9.
Just give me one of these, please: 1.0 = active, 0.0 = inactive

- O=C(Cc1ccccc1)c1ccccc1: 1.0
- NC(=O)O: 0.0
- OCC(O)CCl (stereo unspecified): 1.0
- COP(=O)(OC)OC: 0.0
- O=C(NCO)NCO: 0.0
- COc1ccc(C=O)cc1: 0.0
- c1cc[c]([Hg][c]2ccccc2)cc1: 0.0
- C=C(C)C#N: 0.0

Ask: Each compound tested received a call. Report the one for O=S(=O)(c1ccc(Cl)cc1)c1ccc(Cl)cc1 .
Result: 0.0

Ask: Each compound tested received a call. Report the one for COP(=O)(OC)O/C(=C\Cl)c1cc(Cl)c(Cl)cc1Cl .
Result: 0.0

Ask: Each compound tested received a call. Report the one for O=C1CCCN1 .
Result: 0.0

Ask: Each compound tested received a call. Report the one for CC(=O)c1cc(C(C)(C)C)cc2c1CCC2(C)C .
Result: 0.0

Ask: Each compound tested received a call. Report the one for ClC(Cl)=C(Cl)C(Cl)=C(Cl)Cl .
Result: 0.0

Ask: Each compound tested received a call. Report the one for Cc1ccc(N)cc1Cl .
Result: 0.0

Ask: Each compound tested received a call. Report the one for CCCCCCCCSC(=O)Oc1cc(Cl)nnc1-c1ccccc1 .
Result: 0.0

Ask: Each compound tested received a call. Report the one for CNC(=O)O/N=C/C(C)(C)S(C)=O (stereo unspecified) .
Result: 0.0
